The reader will find reported IC50 values listed item by item below.
biological target: BRG-1 (Homo sapiens); construct: made in house; host or cells: High Five insect cells; experiment: ATPase catalytic activity assay (ADP-Glo), BRG-1; assay type: biochemical; details: 30 nM BRG-1, 400 μM ATP, 20 nM salmon sperm DNA, read-out: BRG1 IP50 (μM)*
Sequence (P51532 whole entry): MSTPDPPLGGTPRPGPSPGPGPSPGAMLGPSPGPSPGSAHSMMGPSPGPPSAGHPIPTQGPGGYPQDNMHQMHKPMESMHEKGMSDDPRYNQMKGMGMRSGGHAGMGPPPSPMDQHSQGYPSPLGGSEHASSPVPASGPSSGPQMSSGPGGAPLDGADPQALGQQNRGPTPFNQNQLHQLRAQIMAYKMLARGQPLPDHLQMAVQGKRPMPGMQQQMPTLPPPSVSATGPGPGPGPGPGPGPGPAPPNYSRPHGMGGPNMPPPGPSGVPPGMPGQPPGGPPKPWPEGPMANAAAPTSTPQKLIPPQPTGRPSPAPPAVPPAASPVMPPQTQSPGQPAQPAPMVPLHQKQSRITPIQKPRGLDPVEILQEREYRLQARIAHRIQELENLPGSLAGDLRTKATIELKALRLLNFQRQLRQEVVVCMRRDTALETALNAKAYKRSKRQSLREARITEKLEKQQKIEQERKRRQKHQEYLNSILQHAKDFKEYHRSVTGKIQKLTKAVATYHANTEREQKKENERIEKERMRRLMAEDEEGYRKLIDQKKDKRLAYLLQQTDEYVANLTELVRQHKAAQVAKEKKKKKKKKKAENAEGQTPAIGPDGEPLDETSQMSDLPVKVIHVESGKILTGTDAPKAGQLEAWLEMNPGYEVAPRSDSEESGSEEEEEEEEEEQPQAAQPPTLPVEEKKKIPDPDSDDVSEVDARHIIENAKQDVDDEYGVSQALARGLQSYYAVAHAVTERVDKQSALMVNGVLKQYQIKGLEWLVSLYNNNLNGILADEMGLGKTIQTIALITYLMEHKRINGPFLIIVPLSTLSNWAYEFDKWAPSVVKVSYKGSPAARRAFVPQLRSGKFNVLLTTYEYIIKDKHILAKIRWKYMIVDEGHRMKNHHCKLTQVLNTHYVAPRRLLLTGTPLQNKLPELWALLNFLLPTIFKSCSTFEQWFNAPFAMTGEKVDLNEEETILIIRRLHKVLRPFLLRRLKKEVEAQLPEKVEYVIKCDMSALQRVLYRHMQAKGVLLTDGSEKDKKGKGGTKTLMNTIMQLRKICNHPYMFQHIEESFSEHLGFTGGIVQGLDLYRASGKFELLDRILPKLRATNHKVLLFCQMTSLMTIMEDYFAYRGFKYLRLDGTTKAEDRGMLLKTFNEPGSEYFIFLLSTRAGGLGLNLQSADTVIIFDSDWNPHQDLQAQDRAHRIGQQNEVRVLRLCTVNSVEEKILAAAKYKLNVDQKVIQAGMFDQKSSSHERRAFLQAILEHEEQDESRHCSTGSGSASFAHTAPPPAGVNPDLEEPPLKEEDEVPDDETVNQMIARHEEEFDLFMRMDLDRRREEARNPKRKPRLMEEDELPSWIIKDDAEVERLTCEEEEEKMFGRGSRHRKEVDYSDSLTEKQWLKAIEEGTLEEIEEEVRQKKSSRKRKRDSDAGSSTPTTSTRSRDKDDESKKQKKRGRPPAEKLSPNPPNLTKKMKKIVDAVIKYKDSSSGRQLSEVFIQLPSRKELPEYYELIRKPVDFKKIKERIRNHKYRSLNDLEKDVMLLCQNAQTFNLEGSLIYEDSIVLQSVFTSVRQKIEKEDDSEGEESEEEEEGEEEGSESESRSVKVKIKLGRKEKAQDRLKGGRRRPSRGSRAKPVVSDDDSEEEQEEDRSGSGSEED

Here is how some compounds turned out for IC50.
| compound | recorded-value |
| --- | --- |
| CC(C)S(=O)(=O)n1cc(C(=O)NCC(=O)Nc2nc(-c3cccc(N4C[C@@H](C)O[C@@H](C)C4)c3)cs2)c2ccccc21 [Compound 31] | > 5 µM |
| CNC(=O)CN(C)c1cc(-c2cccc(-c3csc(NC(=O)CNC(=O)c4cc(C)n(S(C)(=O)=O)c4)n3)c2)ccn1 [Compound 46] | < 0.1 µM |
| Cc1cc(-c2cccc(-c3csc(NC(=O)CNC(=O)c4cc(CO)n(S(=O)(=O)C(C)C)c4)n3)c2)cc(C)n1 [Compound 25] | 0.1 to 1 µM |

Let us examine a further case.
Request: Report IC50 for Cc1cc(-c2cccc(-c3csc(NC(=O)CNC(=O)c4cn(S(=O)(=O)C(C)C)c5c4CCCC5)n3)c2)cc(C)n1 [Compound 20] please.
Result: > 5 µM
